From: patent US20150086555A1

Please go through the items and note down their Trimeric HA Binding: RLU.
Measured on: recombinant homotrimeric HA A/California/4/09 H1N1 (Influenza A virus A/California/04/2009(H1N1))
Test: protein microarray, purified IgG, trimeric HA
Test parameters: remark: other sources report otherwise
Numeric only. Scale: RLU

Please look up its Trimeric HA Binding: RLU: TCN-544 (5082_A19) (antibody, V domains shown) VH: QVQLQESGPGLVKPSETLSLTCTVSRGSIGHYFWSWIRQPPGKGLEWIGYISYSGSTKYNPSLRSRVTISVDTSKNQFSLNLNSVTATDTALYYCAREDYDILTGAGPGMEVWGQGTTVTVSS VL: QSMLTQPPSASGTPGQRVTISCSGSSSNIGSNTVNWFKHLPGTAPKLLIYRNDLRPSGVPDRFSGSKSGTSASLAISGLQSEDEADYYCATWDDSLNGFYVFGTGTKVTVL
285

Given the entry TCN-536 (5095_N01) (antibody, V domains shown) VH: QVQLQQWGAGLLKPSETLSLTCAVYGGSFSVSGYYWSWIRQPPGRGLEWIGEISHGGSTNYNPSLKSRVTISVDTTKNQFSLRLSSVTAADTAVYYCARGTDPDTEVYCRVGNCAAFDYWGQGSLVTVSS VL: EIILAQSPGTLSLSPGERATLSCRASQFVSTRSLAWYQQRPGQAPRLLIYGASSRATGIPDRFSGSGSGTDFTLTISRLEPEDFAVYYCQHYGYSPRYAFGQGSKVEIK , report its measured Trimeric HA Binding: RLU.
298

// returns reported Trimeric HA Binding: RLU for input TCN-538 (3206_O17) (antibody, V domains shown) VH: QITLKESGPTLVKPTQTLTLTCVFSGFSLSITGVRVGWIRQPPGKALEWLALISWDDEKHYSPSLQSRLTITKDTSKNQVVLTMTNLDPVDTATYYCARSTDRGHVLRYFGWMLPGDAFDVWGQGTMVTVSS VL: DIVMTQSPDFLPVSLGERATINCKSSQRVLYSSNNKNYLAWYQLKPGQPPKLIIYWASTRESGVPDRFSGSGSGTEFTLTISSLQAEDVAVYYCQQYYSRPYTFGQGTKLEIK
4810
